Tested on: α-glucosidase
Method Summary: in vitro α-glucosidase inhibitory activity
Format: biochemical, Homo sapiens
Applied Conditions: 500 µM
Each entry below lists one item and its recorded % α-Glucosidase Inhibition value.
Kindly provide the numeric value in % only, without the unit symbol.

**Q:** What reported % α-Glucosidase Inhibition corresponds to CN1C(=O)C[C@@H](C(C)(C)/C=C2\SC(=O)N(C(=O)CN3CCOCC3)C2=O)C1=O [10b] on α-glucosidase?
**A:** 79.48

**Q:** Fill in the recorded % α-Glucosidase Inhibition for this compound, with α-glucosidase as test system: CC(C)(C=C1SC(=O)N(C(=O)CN2CCOCC2)C1=O)C1CC(=O)N(Cc2ccccc2)C1=O (stereo not drawn) [10d]
**A:** 88.43

**Q:** Form entry - test system: α-glucosidase; read-out: % α-Glucosidase Inhibition; compound: C[C@H]1O[C@H](O[C@H]2[C@H](O)[C@@H](O)[C@@H](O[C@H]3[C@H](O)[C@@H](O)C(O)O[C@@H]3CO)O[C@@H]2CO)[C@H](O)[C@@H](O)[C@@H]1N[C@H]1C=C(CO)[C@@H](O)[C@H](O)[C@H]1O (stereo partly drawn) [Acarbose, acarbose, reference compound]
**A:** 94.40

**Q:** Request body: readout % α-Glucosidase Inhibition, system α-glucosidase, query COc1ccc(N2C(=O)C[C@@H](C(C)(C)/C=C3\SC(=O)N(C(=O)CN4CCOCC4)C3=O)C2=O)cc1 [10e] . Return the value.
**A:** 86.44

**Q:** Request body: readout % α-Glucosidase Inhibition, system α-glucosidase, query CC(C)(/C=C1\SC(=O)N(C(=O)CN2CCOCC2)C1=O)[C@@H]1CC(=O)NC1=O [10a] . Return the value.
**A:** 79.49

**Q:** Missing value: % α-Glucosidase Inhibition, α-glucosidase, entry CC(C)(/C=C1\SC(=O)N(C(=O)CN2CCOCC2)C1=O)[C@@H]1CC(=O)N(c2ccccc2)C1=O [10c] . Fill in?
**A:** 81.53

====

Known inhibition at 500 µM of a selection of compounds
Experimental System: α-amylase (Homo sapiens, UniProt P04746)
Sequence (P04746 16-511): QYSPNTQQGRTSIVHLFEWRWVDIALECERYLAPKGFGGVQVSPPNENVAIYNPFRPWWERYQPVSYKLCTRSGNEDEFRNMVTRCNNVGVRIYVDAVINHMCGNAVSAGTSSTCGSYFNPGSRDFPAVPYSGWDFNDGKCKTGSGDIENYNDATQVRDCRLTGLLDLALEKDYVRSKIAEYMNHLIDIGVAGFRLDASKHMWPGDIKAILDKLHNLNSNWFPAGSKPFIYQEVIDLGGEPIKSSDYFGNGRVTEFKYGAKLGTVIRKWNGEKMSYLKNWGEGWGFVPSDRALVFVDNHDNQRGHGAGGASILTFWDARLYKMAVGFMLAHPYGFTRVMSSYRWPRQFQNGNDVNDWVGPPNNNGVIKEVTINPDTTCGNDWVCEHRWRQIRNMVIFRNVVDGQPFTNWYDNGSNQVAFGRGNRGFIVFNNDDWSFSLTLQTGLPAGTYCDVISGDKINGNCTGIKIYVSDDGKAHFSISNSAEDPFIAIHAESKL
Method Summary: in vitro α-amylase inhibitory activity
Assay type: biochemical
Applied Conditions: 500 µM; read-out: % α-Amylase Inhibition
Write the number in % without appending the unit.

# count of solved cases: 4
[
  {
    "Compound": "CC(C)(C=C1SC(=O)N(C(=O)CN2CCOCC2)C1=O)C1CC(=O)N(Cc2ccccc2)C1=O (centres unmarked) [10d]",
    "Experimental System": "α-amylase (Homo sapiens, UniProt P04746)",
    "Numeric Result": 82.3
  },
  {
    "Compound": "CC(C)(/C=C1\\SC(=O)N(C(=O)CN2CCOCC2)C1=O)[C@@H]1CC(=O)N(c2ccccc2)C1=O [10c]",
    "Experimental System": "α-amylase (Homo sapiens, UniProt P04746)",
    "Numeric Result": 88.6
  },
  {
    "Compound": "CN1C(=O)C[C@@H](C(C)(C)/C=C2\\SC(=O)N(C(=O)CN3CCOCC3)C2=O)C1=O [10b]",
    "Experimental System": "α-amylase (Homo sapiens, UniProt P04746)",
    "Numeric Result": 79.4
  },
  {
    "Compound": "CC(C)(/C=C1\\SC(=O)N(C(=O)CN2CCOCC2)C1=O)[C@@H]1CC(=O)NC1=O [10a]",
    "Experimental System": "α-amylase (Homo sapiens, UniProt P04746)",
    "Numeric Result": 82.6
  }
]

API: the following record is the query input.
**Q:** Checklist item: inhibition at 500 µM tested on α-amylase (Homo sapiens, UniProt P04746), entry COc1ccc(N2C(=O)C[C@@H](C(C)(C)/C=C3\SC(=O)N(C(=O)CN4CCOCC4)C3=O)C2=O)cc1 [10e] , value?
**A:** 92.7
